System: slow reacting substance of anaphylaxis (SRS-A), isolated guinea pig ileum
ASSAY_SUMMARY: SRS-A Antagonism on Guinea Pig Ileum
CONDITION_INFO: isolated guinea pig ileum strips; Tyrode's solution with atropine 5×10^-7 M and mepyramine 10^-6 M; rat SRS-A; read-out: Approximate concentration to give a 50% inhibition of a less than maximal response to SRS-A
MEASURED_METRIC: IC50

Tell me reported IC50 for CCCc1c(OCCCOc2cccc3c2C(=O)c2nn[nH]c2C3=O)ccc(C(C)=O)c1O [Example 3] , tested with slow reacting substance of anaphylaxis (SRS-A), isolated guinea pig ileum.
1000 to 10000 nM

Cool, now CCCc1c(OCC(O)COc2ccc3c(c2)C(=O)c2nn[nH]c2C3=O)ccc(C(C)=O)c1O (stereo not drawn) [Example 4]
100 to 250 nM

Moving on to the next molecule: CCCc1c(OCCCOc2ccc3c(c2)C(=O)c2nn[nH]c2C3=O)ccc(C(C)=O)c1O [Example 1]
~400 nM
